assay.system: recombinant human PDE8A (Homo sapiens, UniProt O60658)
Construct: purchased BPS Bioscience Inc
Sequence (O60658 whole entry): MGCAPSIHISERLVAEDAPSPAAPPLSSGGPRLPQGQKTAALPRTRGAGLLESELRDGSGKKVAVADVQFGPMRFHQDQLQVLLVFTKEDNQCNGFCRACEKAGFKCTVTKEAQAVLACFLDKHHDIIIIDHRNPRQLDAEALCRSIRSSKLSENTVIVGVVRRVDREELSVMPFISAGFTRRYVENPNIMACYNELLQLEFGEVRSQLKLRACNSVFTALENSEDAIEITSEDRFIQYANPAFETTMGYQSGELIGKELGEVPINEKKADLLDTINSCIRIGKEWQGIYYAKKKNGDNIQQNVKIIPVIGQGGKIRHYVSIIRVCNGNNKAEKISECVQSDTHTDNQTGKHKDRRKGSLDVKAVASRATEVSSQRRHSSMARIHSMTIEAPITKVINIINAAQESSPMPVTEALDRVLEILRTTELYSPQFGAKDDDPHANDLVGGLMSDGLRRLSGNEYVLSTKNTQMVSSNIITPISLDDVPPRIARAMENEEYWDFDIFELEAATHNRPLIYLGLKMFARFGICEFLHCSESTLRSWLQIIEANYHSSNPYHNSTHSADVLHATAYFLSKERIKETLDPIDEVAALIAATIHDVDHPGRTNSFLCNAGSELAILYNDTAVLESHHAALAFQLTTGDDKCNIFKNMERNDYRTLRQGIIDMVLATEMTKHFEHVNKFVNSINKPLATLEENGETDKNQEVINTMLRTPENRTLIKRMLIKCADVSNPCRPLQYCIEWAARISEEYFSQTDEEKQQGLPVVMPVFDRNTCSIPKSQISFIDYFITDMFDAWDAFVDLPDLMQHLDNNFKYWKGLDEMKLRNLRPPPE
assay.procedure: In vitro PDE assay (Ba(OH)2 precipitation), PDE8A
Format: biochemical
details: 10 nM cAMP substrate
measure: IC50 (nM)
Write it as a number; the unit nM goes unstated.

Return reported IC50. Input compound: CCc1nnc2c3ccccc3nc(Nc3cccc(C(=O)O)c3)n12
280
